Target: T1, Recombinant human IL-1beta (rhIL-1b) (human, UniProt P01584 117-269)
T1 construct: R&D Systems Cat. No. 201-LB/CF; also called IL-1β; human IL-1β
Experiment: Biacore low-res, mAb captured, 25C; IL-1β in solution (118 nM) over captured mAb; low-resolution Biacore, 25 C
measured.metric: Kd (nM)
Respond with the bare value in nM.

{"binder": "5.5.1 (antibody, IgG4, V domains shown, lambda; also called mAb 5.5.1; Ab 5.5.1) VH: QVQLVESGGGVVQPGRSLRLSCAASGFTFSSYGMHWVRQAPGKGLEWVAVIWYDGDNKYYADSVQGRFTISRDNSKNTLYLQMNSLRPEDTAVYYCARERSSSWYFDYWGQGTLVTVSS VL: QSALTQPASVSGSPGQSITISCTGTSSDVGSYNLVSWYQQHPGKAPKLMIYEVSKRPSGISNRFSGSKSGNTASLTISGLQAEDEADYYCCSYAGSSTWVFGGGTKLTVL", "unit.descriptor": "nM", "Kd": 0.278}
{"binder": "9.26.1 (antibody, human IgG4, V domains shown, lambda; also called 9.26.3) VH: QVQLVESGGGVVQPGRSLRLSCAASGFTFNNYGMHWVRQAPGKGLECVAVIWYDGGNKYYADSVKGRFAISRDNSKNTLYLQMNSLRAEDTAVYYCTAVTKLNYYYGMDVWGQGTTVTVS VL: QSALTQPASVSGSPGQSITISCTGTSSDVGGYNYVSWYQQHPGKAPKLMIYEVSNRPSGVSNRFSGSKSGNTASLTISGLQAEDEADYYCSSYTSSSILVFGGGTKLTVL", "unit.descriptor": "nM", "Kd": 0.854}

# Kd of 9.2.1 (antibody, human IgG4, V domains shown, lambda) VH: QVQLVESGGGVVQPGRSLRLSCAASGFTFNNYGMHWVRQAPGKGLECVAVIWYDGGNKYYADSVKGRFAISRDNSKNTLYLQMNSLRAEDTAVYYCTAVTTLYYYYGMDVWGQGTTVTVS VL: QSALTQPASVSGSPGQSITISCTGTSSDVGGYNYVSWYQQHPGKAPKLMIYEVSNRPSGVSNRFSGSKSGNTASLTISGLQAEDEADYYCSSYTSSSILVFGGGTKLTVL = 0.747
